Target: human plasma kallikrein (hPK) (Homo sapiens)
Test: Enzyme inhibition assay, human plasma kallikrein
pKi: −log10 of the molar value. Numbered stars: 1 amine (or outer) side, 2 acyl side, 3 side chain; on linkers, the order of the positions; unused ones are H or OH. Bridge positions count the residues as written; N and C are the ends. Square brackets hold non-standard residues; d marks the D form. Peptide text beside a SMILES is read from it. TBMB = c1c(C[*:1])cc(C[*:3])cc1C[*:2]; NMeC = CN[C@@H](CS)C(=O)O; NMeS = CN[C@@H](CO)C(=O)O
Tick y if pKi is 9 or greater. Tick n if pKi is less than 9.

[
  {
    "molecule": "CC(C)C[C@@H]1NC(=O)[C@H](CCC(=O)O)NC(=O)[C@H](CCCNC(=N)N)NC(=O)[C@H]([C@@H](C)O)NC(=O)[C@H](CC(C)C)NC(=O)[C@@H]2CSCc3cc(cc(c3)CSC[C@@H](C(=O)N[C@@H](C)C(N)=O)NC1=O)CSC[C@H](NC(=O)[C@H](C)N)C(=O)N[C@@H](C)C(=O)N[C@@H](Cc1c[nH]c3ccccc13)C(=O)N1CCC[C@H]1C(=O)N[C@@H](C)C(=O)N[C@@H](CCCCN)C(=O)N2 [Peptide 1B1] (H-ACAWPAKCLTRELCA-NH2; linker 2-8-14 via TBMB)",
    "label": "n"
  },
  {
    "molecule": "C[C@H](N)C(=O)N[C@H]1CSCc2cc3cc(c2)CSC[C@H](NC(=O)[C@H](CC(N)=O)NC(=O)[C@H](CC(N)=O)NC(=O)[C@H](Cc2ccc(O)cc2)NC(=O)CNC(=O)CNC1=O)C(=O)N[C@@H](CCCNC(=N)N)C(=O)N[C@@H](C)C(=O)N[C@@H](Cc1ccccc1)C(=O)N[C@@H](CO)C(=O)N[C@@H](Cc1ccc(O)cc1)C(=O)N[C@H](C(=O)N[C@@H](C)C(N)=O)CSC3 [Peptide 1F7] (H-ACGGYNNCRAFSYCA-NH2; linker 2-8-14 via TBMB)",
    "label": "n"
  },
  {
    "molecule": "CC(=O)N[C@H]1CSCc2cc3cc(c2)CSC[C@H](NC(=O)[C@H](CCCNC(=N)N)NC(=O)[C@H](C)NC(=O)[C@@H]2CCCN2C(=O)[C@H](Cc2c[nH]c4ccccc24)NC(=O)[C@H](CO)N(C)C1=O)C(=O)N[C@@H](CC(C)C)C(=O)N[C@@H](Cc1c[nH]cn1)C(=O)N[C@@H](CCC(N)=O)C(=O)N[C@@H](CC(=O)O)C(=O)N[C@@H](CC(C)C)C(=O)N[C@H](C(N)=O)CSC3 [Ac-(06-34-18) NMeSer1] (Ac-C[NMeS]WPARCLHQDLC-NH2; linker 1-7-13 via TBMB)",
    "label": "y"
  },
  {
    "molecule": "CC(=O)N[C@H]1CSCc2cc3cc(c2)CSC[C@@H](C(=O)N[C@@H](CC(C)C)C(=O)N[C@@H](Cc2c[nH]cn2)C(=O)N[C@@H](CCC(N)=O)C(=O)N[C@@H](CC(=O)O)C(=O)N[C@@H](CC(C)C)C(=O)N[C@H](C(N)=O)CSC3)N(C)C(=O)[C@H](CCCNC(=N)N)NC(=O)[C@H](C)NC(=O)[C@@H]2CCCN2C(=O)[C@H](Cc2c[nH]c3ccccc23)NC(=O)[C@H](CO)NC1=O [Ac-(06-34-18) NMeCys2] (Ac-CSWPAR[NMeC]LHQDLC-NH2; linker 1-7-13 via TBMB)",
    "label": "n"
  },
  {
    "molecule": "CC(=O)N[C@H]1CSCc2cc3cc(c2)CSC[C@H](NC(=O)[C@H](CCCNC(=N)N)N(C)C(=O)[C@H](C)NC(=O)[C@@H]2CCCN2C(=O)[C@H](Cc2c[nH]c4ccccc24)NC(=O)[C@H](CO)NC1=O)C(=O)N[C@@H](CC(C)C)C(=O)N[C@@H](Cc1c[nH]cn1)C(=O)N[C@@H](CCC(N)=O)C(=O)N[C@@H](CC(=O)O)C(=O)N[C@@H](CC(C)C)C(=O)N[C@H](C(N)=O)CSC3",
    "label": "n"
  }
]
